- System: rabbit reticulocyte lysate system
- assay-protocol: In vitro translation efficiency of capped luciferase mRNA, method I transcripts
- Type: biochemical
- condition-notes: experiment 1
Give measured Translation efficiency in comparison with m^7GpppG-LUC mRNA, Experiment No. 1 for each item. Keep answers brief.
Answers are plain numbers.

Reference set, count: 3
compound	tested-target	recorded-measurement
Cn1c[n+]([C@@H]2O[C@H](COP(=O)(O)OP(=O)(O)OP(=O)(O)OC[C@H]3O[C@@H](n4cnc5c(=O)[nH]c(N)nc54)[C@H](O)[C@@H]3O)[C@@H](O)[C@H]2O)c2nc(N)[nH]c(=O)c21 [m^7GpppG, m^7G(5′)ppp(5′)G, reference compound]	rabbit reticulocyte lysate system	1.00
Nc1nc2c(ncn2[C@@H]2O[C@H](COP(=O)(O)OP(=O)(O)OP(=O)(O)OC[C@H]3O[C@@H](n4cnc5c(N)ncnc54)[C@H](O)[C@@H]3O)[C@@H](O)[C@H]2O)c(=O)[nH]1 [ApppG, reference compound]	rabbit reticulocyte lysate system	0.34
CO[C@H]1[C@@H](O)[C@H]([n+]2cn(C)c3c(=O)[nH]c(N)nc32)O[C@@H]1COP(=O)([O-])OP(=O)(O)OP(=O)(O)OC[C@H]1O[C@@H](n2cnc3c(=O)[nH]c(N)nc32)[C@H](O)[C@@H]1O [m2^7,3′-OGpppG, 7-methyl(3′-O-methyl)GpppG, reference compound]	rabbit reticulocyte lysate system	2.53

Name the recorded Translation efficiency in comparison with m^7GpppG-LUC mRNA, Experiment No. 1 for [BH3-]P(=O)(OP(=O)(O)OCC1OC(n2cnc3c(=O)[nH]c(N)nc32)C(O)C1O)OP(=O)(O)OCC1OC(n2c[n+](C)c3c(=O)[nH]c(N)nc32)C(O)C1O (mixture of isomers) [m^7GppBH3pG] .
1.66

* * *

- System: rabbit reticulocyte lysate system
- assay-protocol: In vitro translation efficiency of capped luciferase mRNA with 31-base poly(A) tail, method II transcripts
- Format: biochemical
- condition-notes: Table 3; relative to m^7GpppG-capped mRNA = 1.0
- Method: Capped, polyadenylated luciferase mRNAs were synthesized in vitro by PCR from a dsDNA template that contained the SP6 promoter, the 5′-UTR sequence of rabbit β-globin mRNA, the entire firefly luciferase coding region, and 31 adenosine residues. […] The integrity of transcripts and quantitation was performed as in Method I. […]
Could you please report measured In vitro translational efficiency (method II) for the items listed next?

compound	recorded-measurement
CO[C@H]1[C@@H](O)[C@H]([n+]2cn(C)c3c(=O)[nH]c(N)nc32)O[C@@H]1COP(=O)([O-])OP(=O)(O)OP(=O)(O)OC[C@H]1O[C@@H](n2cnc3c(=O)[nH]c(N)nc32)[C@H](O)[C@@H]1O [m2^7,3′-OGpppG, 7-methyl(3′-O-methyl)GpppG, reference compound]	1.82 ± 0.20
Cn1c[n+]([C@@H]2O[C@H](COP(=O)(O)OP(=O)(O)OP(=O)(O)OC[C@H]3O[C@@H](n4cnc5c(=O)[nH]c(N)nc54)[C@H](O)[C@@H]3O)[C@@H](O)[C@H]2O)c2nc(N)[nH]c(=O)c21 [m^7GpppG, m^7G(5′)ppp(5′)G, reference compound]	1.00
CO[C@@H]1[C@H](O)[C@@H](COP(=O)(O)OP(O)(=[Se])OP(=O)(O)OC[C@H]2O[C@@H](n3cnc4c(=O)[nH]c(N)nc43)[C@H](O)[C@@H]2O)O[C@H]1n1c[n+](C)c2c(=O)[nH]c(N)nc21 (single isomer, unassigned) [m2^7,2′-OGppSepG (D2), m2^7,2′-OGppSepG]	2.31 ± 0.22

Lab note: next compound to report on.
Which In vitro translational efficiency (method II) reading was recorded for the compound CO[C@@H]1[C@H](O)[C@@H](COP(=O)(O)OP(O)(=[Se])OP(=O)(O)OC[C@H]2O[C@@H](n3cnc4c(=O)[nH]c(N)nc43)[C@H](O)[C@@H]2O)O[C@H]1n1c[n+](C)c2c(=O)[nH]c(N)nc21 (single isomer, unassigned) [m2^7,2′-OGppSepG (D1), m2^7,2′-OGppSepG] ?
2.24 ± 0.28
